Reference source for all entries: PubChem BioAssay (EPA / NIEHS)

Test: APR_HepG2_MicrotubuleCSK_24hr: Apredica 24-hour HepG2 Assay for Microtubule CSK Stabilty (AID 2282909)
Assay Context: HepG2 microtubule cytoskeleton imaging, actives raise or lower the signal
Calls of active or inactive are those of the source. Rule for the calls: active = hit-call score of the fitted dose curve at least 0.9, where 1 is the maximum; inactive = score below 0.9.
Tick one outcome: label 1 = active, label 0 = inactive

[ask] State the result this test recorded for CCOC(=O)O[C@H](C)OC(=O)c1ccc2c(c1)cc(C(=O)NC1CCN(C(C)C)CC1)n2Cc1cc(-c2ccc(Cl)s2)on1 .
[reply] label 1

[ask] What do you have for CC[C@@H]1C[C@H](N(Cc2cc(C(F)(F)F)cc(C(F)(F)F)c2)C(C)=O)c2cc(C(F)(F)F)ccc2N1C(=O)OC(C)C ?
[reply] label 0

[ask] What do you have for O=C1O[C@H]([C@@H](O)CO)C(O)=C1O ?
[reply] label 0

[ask] What do you have for Cc1ccc2oc(CN(Cc3ccccc3)C(=O)Nc3c(F)cc(F)cc3F)c(-c3ccc(Cl)cc3)c2c1 ?
[reply] label 0

[ask] What do you have for Cc1cn([C@H]2C[C@H](N=[N+]=[N-])[C@@H](CO)O2)c(=O)[nH]c1=O ?
[reply] label 0

[ask] What do you have for O=CCCCC=O ?
[reply] label 0

[ask] What do you have for CCCCCCCCCCCO ?
[reply] label 0

[ask] What do you have for CCCCCCCCN(C)CCCCCCCC ?
[reply] label 0

[ask] What do you have for C[C@]12CC[C@@H]3c4ccc(O)cc4CC[C@H]3[C@@H]1CC[C@H]2O ?
[reply] label 1

[ask] What do you have for Cc1ncc(CO)c(CO)c1O ?
[reply] label 0

[ask] What do you have for NC(=O)c1nc(-c2cccc(-c3cc(F)ccc3OCC(F)(F)C(F)(F)F)c2)n[nH]1 ?
[reply] label 0
